Reference source: patent US20140161786A1

# protocol-summary: Amyloid fibril formation by thioflavin T (ThT) fluorescence
# Format: physicochemical
# assay-setup: 100 mM MES pH 7.4, 37° C.
quantity-name: amyloid fibril formation (ThT staining), L- versus D-amino acids

substance	endpoint-result
VQIVYK [Tau 623-628]	equivalent, within error
L-Aβ 37-42: L-amino acid hexapeptide of FIG. 6A; b76 calls it A beta 35-40 (Ac MVGGVV CONH2) (Ac-MVGGVV-NH2; UniProt P05067 706-711, looked up, fragment)	similar
MVGGVV (Ac-MVGGVV-NH2) [A beta A4 35-40, Ac MVGGVV CONH2 in b76]	equivalent, within error
Ac VQIVYK CONH2 [D-tau 623-628]	similar
